- tgt: visual cycle isomerase (Bovine RPE microsome membranes) (Bos taurus, UniProt Q28175)
- Construct: Bovine Retinal Pigment Epithelium (RPE) microsome membranes were the source of a visual cycle isomerase; from tissue; host or cells: bovine retinal pigment epithelium microsome membranes
- Sequence (Q28175 2-533 limits assumed): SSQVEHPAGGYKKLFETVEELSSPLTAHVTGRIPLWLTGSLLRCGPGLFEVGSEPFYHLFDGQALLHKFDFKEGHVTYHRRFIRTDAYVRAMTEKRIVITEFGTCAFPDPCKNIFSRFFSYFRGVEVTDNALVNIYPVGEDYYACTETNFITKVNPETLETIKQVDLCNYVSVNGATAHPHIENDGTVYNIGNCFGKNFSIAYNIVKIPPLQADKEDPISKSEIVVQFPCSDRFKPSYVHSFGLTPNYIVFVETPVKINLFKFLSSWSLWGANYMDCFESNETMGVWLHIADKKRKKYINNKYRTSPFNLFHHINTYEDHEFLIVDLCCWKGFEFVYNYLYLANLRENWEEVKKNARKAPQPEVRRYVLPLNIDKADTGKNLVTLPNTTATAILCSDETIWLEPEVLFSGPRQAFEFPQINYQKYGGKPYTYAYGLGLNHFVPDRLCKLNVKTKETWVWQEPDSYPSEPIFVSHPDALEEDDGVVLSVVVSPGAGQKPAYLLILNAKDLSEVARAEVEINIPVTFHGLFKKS
- experiment.summary: In vitro isomerase inhibition assay, bovine RPE microsome membranes
- Assay type: biochemical
- details: bovine RPE microsomes; 11-cis retinol formation
measurement.name: IC50

Worked set:
>>> df
                                   compound                                       tgt  test_result
0  NCCC(O)c1cccc(C#CCC2CCCC2)c1 (centres unmarked)  visual cycle isomerase (Bovine RPE microsome membranes) (Bos taurus, UniProt Q28175)       ≤ 1 µM
1        NCCCc1cccc(C#C[C@@H](O)c2ccccc2)c1  visual cycle isomerase (Bovine RPE microsome membranes) (Bos taurus, UniProt Q28175)      ≤ 10 µM
2                 NCCOc1cccc(C#CC2CCCCC2)c1  visual cycle isomerase (Bovine RPE microsome membranes) (Bos taurus, UniProt Q28175)       ≤ 1 µM
3                 NCCOc1cccc(C#Cc2ccncc2)c1  visual cycle isomerase (Bovine RPE microsome membranes) (Bos taurus, UniProt Q28175)      ≤ 10 µM

We now examine a further compound.
Provide the reported IC50 (system: visual cycle isomerase (Bovine RPE microsome membranes) (Bos taurus, UniProt Q28175)) for CCCC(O)C#Cc1cccc(CCCN)c1 (centres unmarked)
≤ 1 µM
